Test system: Caki-2 cells
assay_explanation: Cell viability assay (Orangu WST-8, formazan-based)
condition_notes: 48 h
assay_metric: CC50 (nM)
State just the number; it will be interpreted in nM.

Could you share which CC50 value was measured for `COC(=O)[C@H]1[C@@H](O)[C@@]2(O)c3c(OC)cc(O[C@@H]4O[C@@H]([C@H](O)CO)CO[C@H]4OC)cc3O[C@@]2(c2ccc(OC)cc2)[C@@H]1c1ccccc1` ?
37.2

----------
assay_explanation: Stability assay in human liver microsomes
Assay type: in vitro ADME
condition_notes: pH 7.4; human liver microsomes 0.5 mg/mL, 100 nM; read-out: intrinsic clearance
assay_metric: microsomal CLint at 100 nM (µL/min/mg)
A number alone suffices; assume µL/min/mg.

GET /values?readout=microsomal CLint at 100 nM&item= COC(=O)[C@H]1[C@@H](O)[C@@]2(O)c3c(OC)cc(O[C@@H]4O[C@@H]([C@H](O)CO)CO[C@H]4OC)cc3O[C@@]2(c2ccc(OC)cc2)[C@@H]1c1ccccc1 [silvestrol]
1.7

----------
assay_explanation: Stability assay in human liver microsomes
Format: in vitro ADME
condition_notes: pH 7.4; human liver microsomes 0.5 mg/mL, 100 nM
assay_metric: half-life at 100 nM
Could you give the number and then its unit, please?

Requested field: half-life at 100 nM. Item: `COC(=O)[C@H]1[C@@H](O)[C@@]2(O)c3c(OC)cc(O[C@@H]4O[C@@H]([C@H](O)CO)CO[C@H]4OC)cc3O[C@@]2(c2ccc(OC)cc2)[C@@H]1c1ccccc1`
11.6 h

----------
assay_explanation: Stability assay in human liver microsomes
Format: in vitro ADME
condition_notes: pH 7.4; human liver microsomes 0.5 mg/mL, 10 µM; read-out: intrinsic clearance
assay_metric: microsomal CLint at 10 µM (µL/min/mg)
Please respond with the number in µL/min/mg and leave the unit unwritten.

Suppose we examine the compound Cc1ccc(-c2cc(C(F)(F)F)nn2-c2ccc(S(N)(=O)=O)cc2)cc1 [celecoxib, reference compound] ; what microsomal CLint at 10 µM value has been reported?
10.5

----------
assay_explanation: Cell viability assay (Orangu WST-8, formazan-based)
condition_notes: human, Caki-2 cells
assay_metric: CC50 at 48 h (nM)
Record the value in nM, omitting the unit from your answer.

Form field: reported CC50 at 48 h of `COC(=O)[C@H]1[C@@H](O)[C@@]2(O)c3c(OC)cc(O[C@@H]4O[C@@H]([C@H](O)CO)CO[C@H]4OC)cc3O[C@@]2(c2ccc(OC)cc2)[C@@H]1c1ccccc1`
37
